assayed_system: T1, recombinant human FGFR1c Fc fusion (human, UniProt P11362 141-376)
T1 construct: also called FGFR1IIIc; not shown: Fc part of the FGFR-Fc fusion
T1 sequence: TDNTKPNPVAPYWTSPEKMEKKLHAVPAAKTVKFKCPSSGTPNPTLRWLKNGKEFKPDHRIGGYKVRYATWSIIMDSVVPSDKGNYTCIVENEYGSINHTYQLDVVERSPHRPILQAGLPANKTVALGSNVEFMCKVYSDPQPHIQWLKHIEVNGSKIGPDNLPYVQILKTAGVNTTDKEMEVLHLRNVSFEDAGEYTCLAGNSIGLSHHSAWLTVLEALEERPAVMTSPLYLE
assay_overview: ELISA, scFv on coated FGFR-Fc
measurement_kind: pEC50
Quick note: pEC50 means taking -log10 of the concentration in moles per liter.

# query: pEC50 of entry Ab15 (scFv format) (scFv, also called FGF#26) scFv: EVQLLESGGGVVQPGRSLRLSCAASGFTFSSYAMHWVRQAPGKGLEWVAVISYDGSNKYYADSVKGRFTISRDNSKNTLSLQMNSLRVEDTAIYYCVRGAGRGYTYGPDGFDIWGQGTMVTVSSASTGGGGSGGGGSGGGGSGGGGSDIVMTQTPLSLSVTPGQPASISCTSSRSLLHSDGKTYVYWYVQKSGQPPQLLIYELSNRFSGVPDRFSGSGSRTDFTLKISRVEAEDVGVYYCMQYIEAPLTFGGGTKVEIKRTVAAPSHHHHHH
9.53

# query: pEC50 of entry Ab3 (scFv format) (scFv, also called FGF#78) scFv: EVQLVESGGGVVQPGRSLRLSCAASGFTFSQYSMHWVRQSPGKGLEWVTLISFDGADKYYADSVKGRFTISRDNSNDTLFLHMNGLRVEDTAIYYCVRGAGRGYTYGPDGFDIWGQGTMVTVSSASTGGGGSGGGGSGGGGSGGGGSDIQLTQSPSSLSASVGDRVTITCRTSQTISRYLNWYQQQPGKAPKLLIYTATSLQSGVPSRFSGSGSGTDFTLTIGGLQPEDFAIYFCQQTYSAPLTFGGGTKVEIKRTVAAPSHHHHHH
9.50
